- testName: AUC (0 to last) in mouse at 1 mg/kg, iv
- Type: ADME, organism-based
- Design: dose 1 mg/kg, time 0 - last, route intravenous
- appliedConditions: in vivo
measuredQuantity: AUClast
Write your answer as a measured quantity: the number, then the unit.

Give the value of AUClast reported for the following: CC(C)c1c(-c2ccccc2)[nH]c2c(C#N)cnn2c1=O 13.3 µM·h

* * *

- testName: Plasma protein binding in mouse
- Type: ADME, cell-free
- appliedConditions: read-out: PPB (converted)
measuredQuantity: fraction unbound
Respond using a number only.

Hello, please tell me recorded fraction unbound for this one: CC(C)c1c(-c2ccccc2)[nH]c2c(C#N)cnn2c1=O 0.012

* * *

- testName: Oral bioavailability in mouse at 5 mg/kg
- Assay type: ADME, organism-based
- appliedConditions: in vivo
measuredQuantity: bioavailability

Identify bioavailability associated with the molecule CC(C)c1c(-c2ccccc2)[nH]c2c(C#N)cnn2c1=O > 100%

* * *

- testName: Apparent permeability from apical to basolateral side in MDCK cells
- Type: ADME, cell-based, Canis lupus familiaris
- appliedConditions: dog
measuredQuantity: Papp A→B
Could you kindly put the unit after your number?

Supply measured Papp A→B of CC(C)c1c(-c2ccccc2)[nH]c2c(C#N)cnn2c1=O in your reply. 17.2 ×10⁻⁶ cm/s

* * *

- testName: Half life in mouse at 1 mg/kg, iv
- Type: ADME, organism-based
- appliedConditions: in vivo
measuredQuantity: half-life (h)
Return type: number; implicit unit h.

Using the record for CC(C)c1c(-c2ccccc2)[nH]c2c(C#N)cnn2c1=O , state its measured half-life. 1.18

* * *

- testName: Plasma protein binding in human
- Type: ADME, cell-free
- appliedConditions: read-out: PPB
measuredQuantity: fraction unbound

Return fraction unbound (reported value) for this compound: CC(C)c1c(-c2ccccc2)[nH]c2c(C#N)cnn2c1=O < 0.001

* * *

- testName: Volume of distribution in steady state in mouse at 1 mg/kg, iv
- Format: ADME, organism-based
- appliedConditions: in vivo, read-out: Vdss
measuredQuantity: Vd
Kindly report the value followed by its unit.

Name the recorded Vd of the compound listed here: CC(C)c1c(-c2ccccc2)[nH]c2c(C#N)cnn2c1=O 0.238 L/kg
